Test system: LS-1034 (Colorectal Carcinoma);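 also: after 72 h of two-drug dosing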
ASSAY TEXT: Bliss excess, mean over the matrix (fraction); higher = more synergy
MEASUREMENT NAME: Bliss excess
// no unit, no text: just the number

Below, each entry is followed by its recorded Bliss excess result.
{"COMPOUND": "COc1nnc2ccc(N3CCC(c4ccc(OCCN5CCN(C)C(=O)[C@H]5C)cc4)CC3)nn12 [AZD5153] + Cn1cnc2c(F)c(Nc3ccc(Br)cc3Cl)c(C(=O)NOCCO)cc21 [Selumetinib] (first compound max 1 µM, 7x7, partner max 10 µM)", "VALUE MEASURED": 0.0264}
{"COMPOUND": "CC1(C)CCC(CN2CCN(c3ccc(C(=O)NS(=O)(=O)c4ccc(NCC5CCOCC5)c([N+](=O)[O-])c4)c(Oc4cnc5[nH]ccc5c4)c3)CC2)=C(c2ccc(Cl)cc2)C1 [Venetoclax] + C[C@@H]1COCCN1C2=NC(=NC(=C2)C3(CC3)[S@](=N)(=O)C)C4=C5C=CNC5=NC=C4 [AZD6738] (first compound max 1 µM, 7x7, partner max 10 µM)", "VALUE MEASURED": -0.0255}

Now for a further compound.
Prompt line: Param item = Cn1cnc2c(F)c(Nc3ccc(Br)cc3Cl)c(C(=O)NOCCO)cc21 [Selumetinib] + C=CCn1c(=O)c2cnc(Nc3ccc(N4CCN(C)CC4)cc3)nc2n1-c1cccc(C(C)(C)O)n1 [AZD1775] (first compound max 10 µM, partner max 1 µM) ; retrieve measured Bliss excess.
Response line: -0.038
